- Protocol notes: Relative bioavailability and food-effect crossover study, cohort 1 (bilayer tablet F2 vs F1 co-administered with F3)
- Experimental parameters: human, in vivo, AUClast, plasma, mean; bilayer tablet F2 Compound of Formula I/F/TAF (75/200/25 mg), single dose, fasted, N = 28
Endpoint label: AUC(0-t) (ng·h/mL)
Give the value in ng·h/mL but do not write ng·h/mL after it.

Query block: May I ask what AUC(0-t) has been recorded for CC(C)OC(=O)[C@H](C)N[P@](=O)(CO[C@H](C)Cn1cnc2c(N)ncnc21)Oc1ccccc1 [Tenofovir alafenamide] ?
Result block: 206

====

- Protocol notes: Relative bioavailability and food-effect crossover study, cohort 1 (bilayer tablet F2 vs F1 co-administered with F3)
- Experimental parameters: human, in vivo, Cmax, plasma, mean; F1 Compound of Formula I (75 mg) + F3 F/TAF (200/25 mg) co-administered, fasted, Reference, N = 28, cohort 1
Endpoint label: Cmax (ng/mL)
Give the value in ng/mL but do not write ng/mL after it.

Query block: May I ask what Cmax has been recorded for CC(C)OC(=O)[C@H](C)N[P@](=O)(CO[C@H](C)Cn1cnc2c(N)ncnc21)Oc1ccccc1 [Tenofovir alafenamide] ?
Result block: 277
